pKi: −log10 of the molar value.
Multi-source literature compilation: pKi on Tyrosine-protein kinase JAK3 (Homo sapiens).

[
  {
    "compound": "CN(C)CCCN(C)C(=O)c1cc(-c2ncnc3[nH]ccc23)c[nH]1",
    "target desc": "Tyrosine-protein kinase JAK3 (Homo sapiens)",
    "pKi": "5.30 to 6.30"
  }
]

Response field pKi (Tyrosine-protein kinase JAK3 (Homo sapiens)) for item "Nc1nn2cccnc2c1-c1cc(NCc2ccc(C(F)(F)F)cc2F)ncn1" : 7.00 to 8.00

Response field pKi (Tyrosine-protein kinase JAK3 (Homo sapiens)) for item "O=C(Nc1ccnc(-c2cnn3cccnc23)c1)c1ccccc1F" : 5.30 to 6.30

Response field pKi (Tyrosine-protein kinase JAK3 (Homo sapiens)) for item c1ccc(CC2Nc3ccccc3-c3ccnc4[nH]cc2c34)cc1 (centres unmarked) : 5.60 to 6.60

Response field pKi (Tyrosine-protein kinase JAK3 (Homo sapiens)) for item "OCCCCC1=Nc2ccccc2-c2ccnc3[nH]cc1c23" : 5.60 to 6.60
